Record form. Attribute: Control Serum Blood-Bank Looped peptides. Fill in for each entry.
# System: control serum Blood-bank (commercial negative donor pooled serum)
# Assay type: binding, human

Some solved cases for reference:
- entry sequence: "IQLLAAVGEILLLEW"
  endpoint value: 0.6
- entry sequence: "FLAFLLFLVLIMLII"
  endpoint value: 0.7
- entry sequence: "LIDFYLCFLAFLLFL"
  endpoint value: 0.5
- entry sequence: "LLEWLAEVVKLPSRY"
  endpoint value: 0.6

Go through the list and state Control Serum Blood-Bank Looped peptides for each entry.
1. PHHVVAVIQEIQLLA
2. FLVLIMLIIFWFSLE

1: 0.5; 2: 0.8

Go through the list and state Control Serum Blood-Bank Looped peptides for each entry.
1. MNELTLIDFYLCFLA
2. EIQLLAAVGEILLLE
3. LKEQHCQKASTQREA
4. AVKPLLAPHHVVAVI
5. YNFLKEQHCQKASTQ

0.5
0.7
0.9
0.7
0.7

Go through the list and state Control Serum Blood-Bank Looped peptides for each entry.
1. CYNFLKEQHCQKAST
2. IIFWFSLEIQDLEEP
3. QKASTQREAEAAVKP
4. IQEIQLLAAVGEILL
5. VVAVIQEIQLLAAVG
6. REAEAAVKPLLAPHH
7. LFLVLIMLIIFWFSL

0.6
0.9
0.7
0.6
0.5
0.7
0.8

###

# System: serum 62 (individual 62)
# Format: binding, human
Record form. Attribute: Binding of serum 62 to linear peptides of Orf14 of SARS-CoV TOR2. Fill in for each entry.
One number for each entry.

Some solved cases for reference:
- entry sequence: "LLLEWLAEVVKLPSR"
  endpoint value: 0.4
- entry sequence: "MLPPCYNFLKEQHCQ"
  endpoint value: 0.3
- entry sequence: "LLAPHHVVAVIQEIQ"
  endpoint value: 0.5
- entry sequence: "PLLAPHHVVAVIQEI"
  endpoint value: 0.4

Go through the list and state Binding of serum 62 to linear peptides of Orf14 of SARS-CoV TOR2 for each entry.
1. IQLLAAVGEILLLEW
2. LAAVGEILLLEWLAE
3. CYNFLKEQHCQKAST
4. VKPLLAPHHVVAVIQ
5. EQHCQKASTQREAEA
6. AVIQEIQLLAAVGEI

1: 0.4; 2: 0.5; 3: 0.4; 4: 0.5; 5: 0.3; 6: 2.1

Go through the list and state Binding of serum 62 to linear peptides of Orf14 of SARS-CoV TOR2 for each entry.
1. VGEILLLEWLAEVVK
2. YNFLKEQHCQKASTQ
3. APHHVVAVIQEIQLL
4. AEAAVKPLLAPHHVV
5. LLAAVGEILLLEWLA
6. QREAEAAVKPLLAPH
7. STQREAEAAVKPLLA

0.4
0.5
0.3
0.8
0.4
0.3
0.4

I would be grateful if you could share the reported Binding of serum 62 to linear peptides of Orf14 of SARS-CoV TOR2 for "HVVAVIQEIQLLAAV" .
0.3

###

# Test system: control serum Blood-bank (commercial negative donor pooled serum)
# Assay type: binding, human
// label = MET if Control serum Blood-bank linear peptides is not less than 0.6, otherwise NOT MET

Examples from the recorded data:
- entry sequence: "QREAEAAVKPLLAPH"
  group: "NOT MET"
- entry sequence: "IFWFSLEIQDLEEPC"
  group: "MET"
- entry sequence: "LLAPHHVVAVIQEIQ"
  group: "NOT MET"

Decide: Control serum Blood-bank linear peptides of "LPPCYNFLKEQHCQK" >= 0.6?
NOT MET

Decide: Control serum Blood-bank linear peptides of "LAPHHVVAVIQEIQL" >= 0.6?
NOT MET

Decide: Control serum Blood-bank linear peptides of "LLLEWLAEVVKLPSR" >= 0.6?
MET

Decide: Control serum Blood-bank linear peptides of "PCYNFLKEQHCQKAS" >= 0.6?
NOT MET

Decide: Control serum Blood-bank linear peptides of "QKASTQREAEAAVKP" >= 0.6?
NOT MET

Decide: Control serum Blood-bank linear peptides of "KEQHCQKASTQREAE" >= 0.6?
NOT MET

Decide: Control serum Blood-bank linear peptides of "YLCFLAFLLFLVLIM" >= 0.6?
MET

Decide: Control serum Blood-bank linear peptides of "FWFSLEIQDLEEPCT" >= 0.6?
NOT MET

Decide: Control serum Blood-bank linear peptides of "REAEAAVKPLLAPHH" >= 0.6?
NOT MET

Decide: Control serum Blood-bank linear peptides of "FLVLIMLIIFWFSLE" >= 0.6?
MET

Decide: Control serum Blood-bank linear peptides of "AVIQEIQLLAAVGEI" >= 0.6?
MET

###

# Test system: serum 6 (individual 6)
# Format: binding, human
// label = t if Binding of serum 6 to linear peptides of Orf14 of SARS-CoV TOR2 is not less than 0.4, otherwise f

Examples from the recorded data:
- entry sequence: "MLPPCYNFLKEQHCQ"
  group: "t"
- entry sequence: "GEILLLEWLAEVVKL"
  group: "t"
- entry sequence: "AAVGEILLLEWLAEV"
  group: "t"
- entry sequence: "EAAVKPLLAPHHVVA"
  group: "t"
- entry sequence: "HCQKASTQREAEAAV"
  group: "t"
- entry sequence: "QLLAAVGEILLLEWL"
  group: "f"
- entry sequence: "LKEQHCQKASTQREA"
  group: "f"
- entry sequence: "EILLLEWLAEVVKLP"
  group: "t"

Continue with the sequence presented below.
Decide: Binding of serum 6 to linear peptides of Orf14 of SARS-CoV TOR2 of "LAAVGEILLLEWLAE" >= 0.4?
t

###

Record form. Attribute: Binding of serum London to linear peptides of Orf14 of SARS-CoV TOR2. Fill in for each entry.
# System: serum London
# Type: binding, human

Some solved cases for reference:
- entry sequence: "PLLAPHHVVAVIQEI"
  endpoint value: 0.5
- entry sequence: "AVKPLLAPHHVVAVI"
  endpoint value: 0.5
- entry sequence: "LKEQHCQKASTQREA"
  endpoint value: 0.3

Go through the list and state Binding of serum London to linear peptides of Orf14 of SARS-CoV TOR2 for each entry.
1. NFLKEQHCQKASTQR
2. VKPLLAPHHVVAVIQ
3. AAVKPLLAPHHVVAV
4. LLEWLAEVVKLPSRY

1. 0.4
2. 0.6
3. 0.8
4. 0.4

###

# System: serum 1b (individual 1, late serum)
# Assay type: binding, human
Record form. Attribute: Binding of serum 1b to linear peptides of Orf14 of SARS-CoV TOR2. Fill in for each entry.
One number for each entry.

Some solved cases for reference:
- entry sequence: "APHHVVAVIQEIQLL"
  endpoint value: 0.4
- entry sequence: "IQLLAAVGEILLLEW"
  endpoint value: 0.4
- entry sequence: "VIQEIQLLAAVGEIL"
  endpoint value: 0.4
- entry sequence: "QKASTQREAEAAVKP"
  endpoint value: 0.3
- entry sequence: "KPLLAPHHVVAVIQE"
  endpoint value: 0.4

Go through the list and state Binding of serum 1b to linear peptides of Orf14 of SARS-CoV TOR2 for each entry.
1. HVVAVIQEIQLLAAV
2. LAPHHVVAVIQEIQL
3. EAEAAVKPLLAPHHV
4. TQREAEAAVKPLLAP
5. KEQHCQKASTQREAE
6. PCYNFLKEQHCQKAS
7. VVAVIQEIQLLAAVG

1. 0.4
2. 0.4
3. 0.3
4. 0.2
5. 0.3
6. 0.2
7. 0.7

Go through the list and state Binding of serum 1b to linear peptides of Orf14 of SARS-CoV TOR2 for each entry.
1. EWLAEVVKLPSRYCC
2. QHCQKASTQREAEAA
3. GEILLLEWLAEVVKL
4. LAAVGEILLLEWLAE
5. AAVGEILLLEWLAEV

[0.6, 0.4, 0.4, 0.5, 0.5]

I would be grateful if you could share the reported Binding of serum 1b to linear peptides of Orf14 of SARS-CoV TOR2 for "CQKASTQREAEAAVK" .
0.2

###

# Test system: serum London
# Type: binding, human
endpoint label: Binding of serum London to linear peptides of Orf14 of SARS-CoV TOR2
One number for each entry.

Some solved cases for reference:
- entry sequence: "MLPPCYNFLKEQHCQ"
  endpoint value: 0.4
- entry sequence: "LLAAVGEILLLEWLA"
  endpoint value: 0.4
- entry sequence: "YNFLKEQHCQKASTQ"
  endpoint value: 0.7
- entry sequence: "VVAVIQEIQLLAAVG"
  endpoint value: 1.0
- entry sequence: "PCYNFLKEQHCQKAS"
  endpoint value: 0.2

Go through the list and state Binding of serum London to linear peptides of Orf14 of SARS-CoV TOR2 for each entry.
1. EIQLLAAVGEILLLE
2. LLAPHHVVAVIQEIQ
3. VIQEIQLLAAVGEIL
4. VAVIQEIQLLAAVGE
5. QKASTQREAEAAVKP

[0.4, 0.5, 0.4, 0.3, 0.3]

Go through the list and state Binding of serum London to linear peptides of Orf14 of SARS-CoV TOR2 for each entry.
1. LAPHHVVAVIQEIQL
2. QEIQLLAAVGEILLL
3. ASTQREAEAAVKPLL
4. EAAVKPLLAPHHVVA
5. QREAEAAVKPLLAPH
6. VGEILLLEWLAEVVK

1: 0.4; 2: 0.3; 3: 0.4; 4: 0.8; 5: 0.4; 6: 0.5

Go through the list and state Binding of serum London to linear peptides of Orf14 of SARS-CoV TOR2 for each entry.
1. QLLAAVGEILLLEWL
2. EILLLEWLAEVVKLP

[0.4, 0.7]
